# test_target: C3a receptor (C3aR) (Homo sapiens, UniProt Q16581)
# Construct: peripheral blood mononuclear cells were isolated from buffy coat (obtained from Australian Red Cross Blood Service, Kelvin Grove); endogenous in cells; host or cells: primary human monocyte-derived macrophages (HMDM) differentiated from CD14+ monocytes of donor buffy coat
# Sequence (Q16581 1-482): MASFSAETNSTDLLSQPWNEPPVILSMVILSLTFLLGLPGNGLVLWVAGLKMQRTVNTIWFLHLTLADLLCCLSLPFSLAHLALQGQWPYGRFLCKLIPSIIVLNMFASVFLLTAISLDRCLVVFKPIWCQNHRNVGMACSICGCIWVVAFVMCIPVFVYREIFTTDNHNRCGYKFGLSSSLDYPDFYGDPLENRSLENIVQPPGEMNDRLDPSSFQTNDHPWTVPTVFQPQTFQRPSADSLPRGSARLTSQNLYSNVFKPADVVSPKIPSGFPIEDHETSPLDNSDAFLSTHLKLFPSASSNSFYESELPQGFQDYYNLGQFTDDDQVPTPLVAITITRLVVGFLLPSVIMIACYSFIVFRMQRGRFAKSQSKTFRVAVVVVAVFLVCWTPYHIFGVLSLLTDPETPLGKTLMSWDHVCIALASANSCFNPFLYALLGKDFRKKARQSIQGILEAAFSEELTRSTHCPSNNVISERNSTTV
# measurement_protocol: Competitive binding with [^125I]-C3a in HMDM
# test_parameters: Table 6; competitive binding with [^125I]-C3a, HMDM
Catalogue of compounds with associated pIC50 ± SEM

{"columns": ["compound", "test_target", "pIC50 ± SEM"],
 "data": [
  ["CC[C@H](C)[C@H](NC(=O)c1ccccc1)c1nc(C(=O)N[C@@H](CCCNC(=N)N)C(=O)O)co1", "C3a receptor (C3aR) (Homo sapiens, UniProt Q16581)", 7.58],
  ["NC(N)=NCCC[C@H](NC(=O)COCC(c1ccccc1)c1ccccc1)C(=O)O [SB290157, reference compound]", "C3a receptor (C3aR) (Homo sapiens, UniProt Q16581)", 7.42],
  ["CC(C)C[C@H](NC(=O)Cc1ccc(F)cc1)c1nc(C(=O)N[C@@H](CCCNC(=N)N)C(=O)O)co1", "C3a receptor (C3aR) (Homo sapiens, UniProt Q16581)", 6.99]
]}

====

# test_target: C3aR (Homo sapiens, UniProt Q16581)
# Construct: peripheral blood mononuclear cells were isolated from buffy coat (obtained from Australian Red Cross Blood Service, Kelvin Grove); endogenous in cells; host or cells: primary human monocyte-derived macrophages (HMDM) differentiated from CD14+ monocytes of donor buffy coat
# measurement_protocol: Calcium mobilization assay in HMDM (agonist/antagonist activity)
# Format: cell-based
# test_parameters: Table 9; antagonist SB290157, Ca^2+ mobilization, HMDM; read-out: IC50 (printed in the EC50 (nM) column)

{"columns": ["compound", "IC50"],
 "data": [
  ["NC(N)=NCCC[C@H](NC(=O)COCC(c1ccccc1)c1ccccc1)C(=O)O [SB290157, reference compound]", "3050 nM"]
]}

====

Catalogue of molecules with associated pIC50 ± SEM
# test_target: C3a receptor (C3aR) (Homo sapiens, UniProt Q16581)
# Construct: peripheral blood mononuclear cells were isolated from buffy coat (obtained from Australian Red Cross Blood Service, Kelvin Grove); endogenous in cells; host or cells: primary human monocyte-derived macrophages (HMDM) differentiated from CD14+ monocytes of donor buffy coat
# measurement_protocol: Competitive binding with [^125I]-C3a in HMDM
# test_parameters: Table 6; competitive binding with [^125I]-C3a, HMDM
reported_metric: pIC50 ± SEM

{"columns": ["molecule", "reported_metric", "experimental_result"],
 "data": [
  ["CC[C@H](C)[C@H](NC(=O)C1CCCc2ccccc21)c1nc(C(=O)N[C@@H](CCCNC(=N)N)C(=O)O)co1 (stereo partly drawn)", "pIC50 ± SEM", 6.98],
  ["CC(C)C[C@H](NC(=O)C1c2ccccc2-c2ccccc21)c1nc(C(=O)N[C@@H](CCCNC(=N)N)C(=O)O)co1", "pIC50 ± SEM", 6.85],
  ["CC[C@H](C)[C@H](NC(=O)Cc1c[nH]c2ccccc12)c1nc(C(=O)N[C@@H](CCCNC(=N)N)C(=O)O)co1", "pIC50 ± SEM", 6.82],
  ["CC[C@H](C)[C@H](NC(=O)c1ccc(C(=O)c2ccccc2)cc1)c1nc(C(=O)N[C@@H](CCCNC(=N)N)C(=O)O)co1", "pIC50 ± SEM", 6.80],
  ["CC[C@H](C)[C@H](NC(=O)C(c1ccccc1)c1ccccc1)c1nc(C(=O)N[C@@H](CCCNC(=N)N)C(=O)O)co1", "pIC50 ± SEM", 6.86],
  ["CC(C)C[C@H](NC(=O)c1c[nH]c2ccccc12)c1nc(C(=O)N[C@@H](CCCNC(=N)N)C(=O)O)co1", "pIC50 ± SEM", 8.03]
]}

Data origin: patent US9586914B2
